Tested on: K. pneumoniae ST258
Collected MIC values appear next to each entry.

| compound | targetEntity | MIC |
| --- | --- | --- |
| CCC[C@@H]1C[C@@H](C(=O)N[C@@H]([C@H]2O[C@H](SC)[C@H](O)[C@@H](O)[C@H]2O)[C@H](C)Cl)N(C)C1 | K. pneumoniae ST258 | > 4 µg/mL |
| Cc1onc(-c2ccccc2)c1C(=O)N[C@@H]1C(=O)N2[C@@H]1SC(C)(C)[C@@H]2C(=O)O | K. pneumoniae ST258 | > 4 µg/mL |
| CC1(C)S[C@@H]2[C@H](NC(=O)[C@H](C(=O)O)c3ccsc3)C(=O)N2[C@H]1C(=O)O | K. pneumoniae ST258 | > 64 µg/mL |
| CN1CCN(c2c(F)cc3c(=O)c(C(=O)O)cn4c3c2OCN4C)CC1 | K. pneumoniae ST258 | > 2 µg/mL |
| CNC(C)C1CCC(N)C(OC2C(N)CC(N)C(OC3OCC(C)(O)C(NC)C3O)C2O)O1 (stereo not shown) | K. pneumoniae ST258 | 2 µg/mL |
| Cc1nnc(SCC2=C(C(=O)O)N3C(=O)[C@@H](NC(=O)Cn4cnnn4)[C@H]3SC2)s1 | K. pneumoniae ST258 | > 16 µg/mL |
| O=C(N[C@H](CO)[C@H](O)c1ccc([N+](=O)[O-])cc1)C(Cl)Cl | K. pneumoniae ST258 | > 16 µg/mL |

###

Test system: E. coli ST131
assayRemarks: Potentiation of additional antibiotics (COMPAN1F plates), MIC
Format: cell-based, Escherichia coli
condition: + 0.5 μM peptidomimetic 15
observable: MIC of antibiotic in presence of peptidomimetic 15

| molecule | reported |
| --- | --- |
| C[C@H]1c2cccc(O)c2C(=O)C2=C(O)[C@]3(O)C(=O)C(C(N)=O)=C(O)[C@@H](N(C)C)[C@@H]3[C@@H](O)[C@@H]21 [Doxycycline] | ≤2 µg/mL |
| CO[C@H]1/C=C/O[C@@]2(C)Oc3c(C)c(O)c4c(O)c(c(/C=N/N5CCN(C)CC5)c(O)c4c3C2=O)NC(=O)/C(C)=C\C=C\[C@H](C)[C@H](O)[C@@H](C)[C@@H](O)[C@@H](C)[C@H](OC(C)=O)[C@@H]1C [Rifampicin, rifampicin] | ≤1 µg/mL |
| CCC[C@@H]1C[C@@H](C(=O)N[C@@H]([C@H]2O[C@H](SC)[C@H](O)[C@@H](O)[C@H]2O)[C@H](C)Cl)N(C)C1 [Clindamycin] | >4 µg/mL |

###

Assay read-out MIC; system under study: K. pneumoniae ST258.
observable: MIC

| smi | reported |
| --- | --- |
| CCN1CCN(c2cc3c(cc2F)c(=O)c(C(=O)O)cn3C2CC2)CC1 | > 2 µg/mL |
| NCC[C@H](O)C(=O)N[C@@H]1C[C@H](N)[C@@H](O[C@H]2O[C@H](CN)[C@@H](O)[C@H](O)[C@H]2O)[C@H](O)[C@H]1O[C@H]1O[C@H](CO)[C@@H](O)[C@H](N)[C@H]1O | 32 µg/mL |
| CO/N=C(\C(=O)N[C@@H]1C(=O)N2C(C(=O)O)=C(CSC(=O)c3ccco3)CS[C@H]12)c1csc(N)n1 | > 4 µg/mL |
| C[C@@H](O)[C@H]1C(=O)N2C(C(=O)O)=C(SCCN=CN)C[C@H]12 | > 8 µg/mL |
